system: MCF7 breast; test: NCI tumour cell line growth inhibition, 48 h
Each entry below lists one item and its recorded TGI value.

> print(dat)
                          query.smiles  measured.metric    result
1  CCNC(=S)NNC(=O)C12CC3CC(CC(C3)C1)C2              TGI  > 100 µM
2     O=C(Nc1ccc(Br)cc1F)c1cc(Cl)ccc1O              TGI  > 100 µM
3            O=C(O)CCNc1ncnc2nc[nH]c12              TGI  > 100 µM

TGI for `CCCCCC#CCOC(=O)C(=[N+]=[N-])P(=O)(c1ccccc1)c1ccccc1` ? > 10 µM

TGI for `S=c1c2cn[nH]c2nc2scc(-c3ccc(Cl)cc3)n12` ? 36.3 µM

TGI for `CSC1=N/C(=C\c2ccc(C)cc2)C(=O)N1CN1CCCCC1` ? > 100 µM
